Data origin, for the record: ChEMBL document CHEMBL4673282

- assay_protocol: Aqueous solubility of compound
- Assay type: physicochemical
- condition: buffer
endpoint_label: solubility (µg/mL)

compound	endpoint_label	inequality_sign	value_observed
O=C(NCCCn1c(=O)c2cc(F)ccc2n2c(=S)[nH]nc12)C1CCCC1	solubility	>	58
CN(C)c1ccc2c(c1)c(=O)n(CCc1ccccc1)c1n[nH]c(=S)n21	solubility	<	1
O=c1c2cc(F)ccc2n2c(=S)[nH]nc2n1CCC1CCC(F)(F)CC1	solubility	<	1
CCn1c(=O)c2cc(F)ccc2n2c(=S)[nH]nc12	solubility	>	39
O=c1c2ccccc2n2c(=S)[nH]nc2n1CCC(F)(F)F	solubility	=	23.3
CC(=O)NCCCn1c(=O)c2cc(F)ccc2n2c(=S)[nH]nc12	solubility	>	50
Cc1nnc2n(CCc3ccccc3)c(=O)c3cc(F)ccc3n12	solubility	=	11
C[C@H]1C[C@@H]1n1c(=O)c2cc(F)ccc2n2c(=S)[nH]nc12 (relative stereo)	solubility	=	13.2
CC(C)CCn1c(=O)c2ccccc2n2c(=S)[nH]nc12	solubility	=	8
O=c1c2cc(F)ccc2n2c(=S)[nH]nc2n1CC1CC1	solubility	=	16.2
O=c1c2ncccc2n2c(=S)[nH]nc2n1CCc1ccccc1	solubility	=	26.9

* * *

- system_tested: Serine/threonine-protein kinase PLK1 (Homo sapiens)
- Sequence (P53350 whole entry): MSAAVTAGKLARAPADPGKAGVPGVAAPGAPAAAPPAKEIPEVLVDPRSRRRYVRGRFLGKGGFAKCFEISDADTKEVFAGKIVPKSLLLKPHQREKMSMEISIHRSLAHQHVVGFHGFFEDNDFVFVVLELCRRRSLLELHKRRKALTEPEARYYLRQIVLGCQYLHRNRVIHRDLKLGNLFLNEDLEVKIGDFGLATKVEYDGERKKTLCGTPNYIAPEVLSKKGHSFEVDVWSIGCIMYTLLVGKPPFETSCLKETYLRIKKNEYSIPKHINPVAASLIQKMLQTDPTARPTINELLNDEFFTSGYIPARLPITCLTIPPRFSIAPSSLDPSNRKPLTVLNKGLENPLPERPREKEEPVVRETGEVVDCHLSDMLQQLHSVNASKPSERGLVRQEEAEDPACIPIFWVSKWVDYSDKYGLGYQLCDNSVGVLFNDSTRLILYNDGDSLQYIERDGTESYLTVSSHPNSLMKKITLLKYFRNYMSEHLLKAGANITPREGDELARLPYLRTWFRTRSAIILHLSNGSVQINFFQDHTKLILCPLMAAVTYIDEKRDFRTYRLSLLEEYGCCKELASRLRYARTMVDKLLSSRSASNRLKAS
- assay_protocol: Inhibition of biotin-Ahx-CETFDPPLHSpTAI-NH2 binding to recombinant human full-length HA-EGFP-tagged Plk1 PBD expressed in HEK293A cells preincubated for 30 mins followed by biotin-Ahx-CETFDPPLHSpTAI-NH2 addition and measured after 1 hr by 3,3',5,5'-tetramethylbenzidine substrate based ELISA
pIC50: −log10 of the molar value.

smiles_structure	inequality_sign	pIC50
CCOCCCn1c(=O)c2ccccc2n2c(S)nnc12	=	5.77
COCCCn1c(=O)c2ccccc2n2c(S)nnc12	=	5.76
Cc1cccc(-n2c(=O)c3ccccc3n3c(S)nnc23)c1C	=	5.73
CC(C)CCn1c(=O)c2ccccc2n2c(=S)[nH]nc12	=	5.76
CCCn1c(=O)c2ccccc2n2c(=S)n(CC(=O)c3ccccc3)nc12	<	4.30
C=CCn1c(=O)c2ccccc2n2c(S)nnc12	=	5.88
CCCn1c(=O)c2ccccc2n2c(SC)nnc12	<	4.30
CCCCn1c(=O)c2ccccc2n2c(S)nnc12	=	5.99
CCCCCn1c(=O)c2ccccc2n2c(S)nnc12	=	5.71

* * *

- assay_protocol: Half life in rat liver microsomes at 1 uM measured up to 60 mins in presence of NADPH generating system
- condition: 1 h
t1/2 reference

molecule	t1/2
O=c1c2ccc(F)cc2n2c(=S)[nH]nc2n1CCc1ccccc1	22.7 min
N#Cc1ccccc1CC(=O)NCCCn1c(=O)c2cc(F)ccc2n2c(=S)[nH]nc12	> 30 min
CC(C)(C)OC(=O)NC1CCC(C(=O)NCCCn2c(=O)c3cc(F)ccc3n3c(=S)[nH]nc23)CC1 (racemic)	24.8 min
O=C(Cc1cccc(F)c1)NCCCn1c(=O)c2cc(F)ccc2n2c(=S)[nH]nc12	26.5 min
O=c1c2cc(F)ccc2n2c(=S)[nH]nc2n1Cc1ccccc1	> 30 min
O=c1c2cc(Br)ccc2n2c(=S)[nH]nc2n1CCc1ccccc1	> 30 min
COc1cccc(CC(=O)NCCCn2c(=O)c3cc(F)ccc3n3c(=S)[nH]nc23)c1	20.1 min
O=C(Cc1cccc(Cl)c1)NCCCn1c(=O)c2cc(F)ccc2n2c(=S)[nH]nc12	8.4 min
O=c1c2cc(F)ccc2n2c(=S)[nH]nc2n1CCc1ccccn1	> 30 min
C[C@H]1C[C@@H]1n1c(=O)c2cc(F)ccc2n2c(=S)[nH]nc12 (relative stereo)	> 30 min
O=C(Cc1ccccc1)NCCCn1c(=O)c2cc(F)ccc2n2c(=S)[nH]nc12	18.7 min
CC(C)(C)OC(=O)Nc1ccc(CC(=O)NCCCn2c(=O)c3cc(F)ccc3n3c(=S)[nH]nc23)cc1	> 30 min
NS(=O)(=O)CCCC(=O)NCCCn1c(=O)c2cc(F)ccc2n2c(=S)[nH]nc12	> 30 min
NCCCn1c(=O)c2cc(F)ccc2n2c(=S)[nH]nc12	> 30 min
O=C(O)CCC(=O)NCCCn1c(=O)c2cc(F)ccc2n2c(=S)[nH]nc12	> 30 min
O=c1c2cc(F)ccc2n2c(=S)[nH]nc2n1CCC(F)(F)F	> 30 min
O=c1c2cccc(F)c2n2c(=S)[nH]nc2n1CCc1ccccc1	> 30 min
O=C(NCCCn1c(=O)c2cc(F)ccc2n2c(=S)[nH]nc12)c1ccc(Cn2ccnc2)cc1	> 30 min
NCCn1c(=O)c2cc(F)ccc2n2c(=S)[nH]nc12	> 30 min
O=c1c2cc(F)ccc2n2c(=S)[nH]nc2n1CCC1CCC(F)(F)CC1	> 30 min

* * *

- assay_protocol: Aqueous solubility of compound
- Type: physicochemical
- condition: buffer
Reported solubility values for the following compounds.

smiles_structure	unit_abbrev	inequality_sign	solubility
CCOP(=O)(CCn1c(=O)c2cc(F)ccc2n2c(=S)[nH]nc12)OCC	µg/mL	>	59
CCCn1c(=O)c2ccccc2n2c(=S)n(CN(CC)CC3CC3)nc12	µg/mL	=	8.7
COCCCn1c(=O)c2ccccc2n2c(S)nnc12	µg/mL	=	31.2
COc1ccccc1CC(=O)NCCCn1c(=O)c2cc(F)ccc2n2c(=S)[nH]nc12	µg/mL	>	65
O=c1c2cc(F)ccc2n2c(=S)[nH]nc2n1CCc1cccnc1	µg/mL	=	25.1
O=c1c2cc(F)ccc2n2c(=S)[nH]nc2n1CCN1CCCCC1	µg/mL	=	2.4

* * *

Item-by-item account of solubility
- assay_protocol: Aqueous solubility of compound
- Type: physicochemical
- condition: buffer

compound	inequality_sign	solubility / µg/mL
O=C(NCCCn1c(=O)c2cc(F)ccc2n2c(=S)[nH]nc12)C1CCCCN1 (racemic)	>	60
CCOCCCn1c(=O)c2ccccc2n2c(S)nnc12	=	15.5
O=C(Cc1ccc(Br)cc1)NCCCn1c(=O)c2cc(F)ccc2n2c(=S)[nH]nc12	<	1
O=c1c2ccc(F)cc2n2c(=S)[nH]nc2n1CCc1ccccc1	<	1
Nc1nnc2n(CCc3ccccc3)c(=O)c3cc(F)ccc3n12	=	2.2
O=C(NCCCn1c(=O)c2cc(F)ccc2n2c(=S)[nH]nc12)C1CCCNC1 (racemic)	=	29.6
CCCCn1c(=O)c2ccccc2n2c(S)nnc12	=	8.5
CN1CCN(CCn2c(=O)c3cc(F)ccc3n3c(=S)[nH]nc23)CC1	>	54
O=c1c2cc(F)ccc2n2c(=S)[nH]nc2n1CCCO	>	43
NCCOCCOCCOCCC(=O)NCCCn1c(=O)c2cc(F)ccc2n2c(=S)[nH]nc12	=	36.1
O=c1c2cc(F)ccc2n2cnnc2n1CCc1ccccc1	=	14.8
O=c1c2cc(Cl)ccc2n2c(=S)[nH]nc2n1CCC(F)(F)F	=	5.1
NCCCn1c(=O)c2cc(F)ccc2n2c(=S)[nH]nc12	=	27
CC(=O)NCCn1c(=O)c2cc(F)ccc2n2c(=S)[nH]nc12	>	47
CCn1c(=O)c2ccccc2n2c(=S)[nH]nc12	>	36
CC(C)OCCCn1c(=O)c2cc(Cl)ccc2n2c(=S)[nH]nc12	=	8.6
CN1CCN(CC(=O)NCCCn2c(=O)c3cc(F)ccc3n3c(=S)[nH]nc23)CC1	>	64
NCCn1c(=O)c2cc(F)ccc2n2c(=S)[nH]nc12	>	41
CC(C)CNC(=O)CCn1c(=O)c2ccccc2n2c(=S)[nH]nc12	=	30.8
O=c1c2cc(Br)ccc2n2c(=S)[nH]nc2n1CCc1ccccc1	<	1
Cc1ccc2c(c1)c(=O)n(CCc1ccccc1)c1n[nH]c(=S)n21	<	1
NC1CCC(C(=O)NCCCn2c(=O)c3cc(F)ccc3n3c(=S)[nH]nc23)CC1 (racemic)	=	38.8

* * *

Entries and their log10 of solubility values follow.
- assay_protocol: Aqueous solubility of compound
- Format: physicochemical
- condition: buffer
endpoint_label: log10 of solubility (log10 of the value in µg/mL)

smiles_structure	log10 of solubility
O=c1c2cc(F)ccc2n2c(=S)[nH]nc2n1CCc1ccccn1	1.11
O=c1c2cc(F)ccc2n2c(=S)[nH]nc2n1CCc1ccccc1Cl	0.48
CC(C)NC(=O)CCn1c(=O)c2cc(Cl)ccc2n2c(=S)[nH]nc12	0.91
C=CCn1c(=O)c2ccccc2n2c(S)nnc12	1.29
NCCCCCC(=O)NCCCn1c(=O)c2cc(F)ccc2n2c(=S)[nH]nc12	1.50
NS(=O)(=O)CCCC(=O)NCCCn1c(=O)c2cc(F)ccc2n2c(=S)[nH]nc12	1.63
O=c1c2cccnc2n2c(=S)[nH]nc2n1CCc1ccccc1	0.69
O=c1c2cc(F)ccc2n2c(=S)[nH]nc2n1Cc1ccccc1	0.92
CC(C)n1c(=O)c2ccccc2n2c(=S)[nH]nc12	1.29
